Measured EC50, listed per entry for reference.
- measured-target: human FXR (NR1H4) (Homo sapiens)
- Sequence (Q96RI1 1-486): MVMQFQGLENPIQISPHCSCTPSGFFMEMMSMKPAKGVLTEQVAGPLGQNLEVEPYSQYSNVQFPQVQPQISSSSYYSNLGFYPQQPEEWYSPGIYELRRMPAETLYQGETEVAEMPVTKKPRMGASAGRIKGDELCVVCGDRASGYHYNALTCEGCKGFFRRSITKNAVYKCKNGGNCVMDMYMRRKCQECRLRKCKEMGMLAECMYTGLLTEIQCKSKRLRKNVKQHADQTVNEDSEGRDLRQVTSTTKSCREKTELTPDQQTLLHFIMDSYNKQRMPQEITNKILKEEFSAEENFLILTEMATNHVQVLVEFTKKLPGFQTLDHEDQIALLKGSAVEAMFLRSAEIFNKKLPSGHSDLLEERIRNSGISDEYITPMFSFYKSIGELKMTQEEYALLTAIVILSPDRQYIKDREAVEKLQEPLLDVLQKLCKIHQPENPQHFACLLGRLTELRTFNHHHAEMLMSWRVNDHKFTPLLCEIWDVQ
- protocol-details: Human FXR (NR1H4) Assay: Gal4 promoter driven luciferase reporter transactivation in CHO cells (Indigo Bioscience kit IB00601)
- condition-set: Human FXR (NR1H4) reporter assay, potency ranges

Worked examples follow.
{"columns": ["compound", "endpoint-result"],
 "data": [
  ["COC(=O)c1cc(OC(C)C)c2nc(N3CCC(NCc4c(-c5ccccc5OC(F)(F)F)noc4C4CC4)CC3)sc2c1 [Example 639]", "0.1 to 1 µM"],
  ["CC1(S(=O)(=O)NC(=O)c2cc(OC(F)F)c3nc(N4C5CCC4CC(NCc4c(-c6c(Cl)cccc6Cl)noc4C4CC4)C5)sc3c2)CC1 (stereo not drawn) [Example 323]", "< 0.001 µM"],
  ["CC1(S(=O)(=O)NC(=O)c2ccc3nc(N4C5CCC4CC(NCc4c(-c6ccccc6C(F)(F)F)noc4C4CC4)C5)sc3c2)CC1 (stereo not drawn) [Example 1420]", "0.001 to 0.1 µM"],
  ["CC1(S(=O)(=O)NC(=O)c2ccc3nc(N4C5CCC4CC(NCc4c(-c6c(Cl)cccc6Cl)noc4C4CC4)C5)sc3c2)CC1 (stereo not drawn) [Example 202]", "< 0.001 µM"],
  ["CN(c1nc2ccc(C(=O)NS(=O)(=O)N(C)C)cc2s1)C1CCC(OCc2c(-c3c(Cl)cccc3Cl)noc2C2CC2)CC1 (stereo not drawn) [Example 279]", "0.1 to 1 µM"],
  ["COC(=O)c1cc(OC(C)C)c2nc(N3C4CCC3CC(NCc3c(-c5c(F)cccc5F)noc3C3CC3)C4)sc2c1 (stereo not drawn) [Example 1423]", "> 1 µM"],
  ["O=C(O)c1ccc2cc(N3C4CCC3CC(NCc3c(-c5c(Cl)cccc5Cl)noc3C3CC3)C4)ccc2c1 (stereo not drawn) [Example 50]", "< 0.001 µM"],
  ["O=C(O)c1cc2sc(N3C4CCC3CC(NCc3c(-c5c(Cl)cccc5Cl)noc3C3CC3)C4)nc2c2ccccc12 (stereo not drawn) [Example 200-28]", "< 0.001 µM"]
]}

Consider the record given below.
Input line: Return reported EC50. Input compound: CC1(S(=O)(=O)NC(=O)c2cnc3nc(N4C5CCC4CC(NCc4c(-c6c(Cl)cccc6Cl)noc4C4CC4)C5)sc3n2)CC1 (stereo not drawn) [Example 400-26]
Output line: < 0.001 µM
